Tested on: Fibroblast
Procedure Details: Multiplex assay against human fibroblast
Format: toxicity, cell-based
Test Context: 48 h, 1 µM, compound concentration 1 uM, replicate 1
Doc: threshold 20% (exclusive). Items with Population Hoechst High Intensity Objects (%) beneath it return 1; others return -1.

Molecule | Assigned Class
CN1CCC(=C2c3ccccc3CC(=O)c3sccc32)CC1.O=C(O)/C=C/C(=O)O [KETOTIFEN FUMARATE] | 1
CCc1cccc(CC)c1NC(=O)c1nn(C)c2c1CCc1cnc(Nc3ccc(C(=O)NC4CCN(C)CC4)cc3OC(F)(F)F)nc1-2 | 1
CCOC(=O)c1c(C)[nH]c2ccc3c(c12)CN1CCc2cc(OC)ccc2C1O3 (configuration not stated) | 1
Cl.O=c1c2cccn2c2ccccc2n1CCCN1CCC(c2ccc(Cl)cc2)CC1 | 1
Cc1ccc(C(=O)Nc2cccc(C(F)(F)F)c2)cc1Nc1nc(-c2cccnc2)nc2c1cnn2C | -1
CNc1cc(Oc2cc(C(=O)Nc3cc(N4CCN(C)CC4)cc(C(F)(F)F)c3)ccc2C)ncn1 | 1
